Item-by-item account of IC50
Biological target: PHGDH (Homo sapiens (Human), UniProt O43175)
Sequence (O43175 2-533 limits assumed): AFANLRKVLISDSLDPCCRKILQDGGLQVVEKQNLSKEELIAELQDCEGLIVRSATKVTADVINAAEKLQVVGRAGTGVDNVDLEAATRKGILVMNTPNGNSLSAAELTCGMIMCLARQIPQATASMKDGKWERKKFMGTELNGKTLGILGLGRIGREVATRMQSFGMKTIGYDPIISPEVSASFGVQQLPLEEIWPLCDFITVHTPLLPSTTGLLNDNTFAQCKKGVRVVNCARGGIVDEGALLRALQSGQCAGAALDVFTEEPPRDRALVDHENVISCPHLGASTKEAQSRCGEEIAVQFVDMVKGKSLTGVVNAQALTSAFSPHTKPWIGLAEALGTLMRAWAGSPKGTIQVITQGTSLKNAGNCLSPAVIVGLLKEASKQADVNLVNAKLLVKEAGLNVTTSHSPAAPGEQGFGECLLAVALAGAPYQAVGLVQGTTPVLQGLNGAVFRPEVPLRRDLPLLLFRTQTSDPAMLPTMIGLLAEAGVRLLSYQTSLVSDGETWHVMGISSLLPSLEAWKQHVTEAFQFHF
Assay: 3-Phosphoglycerate Dehydrogenase (PHGDH) Fluorescence Intensity Assay, run at two NAD/3-PG ratios: PHGDH_HIGH_NAD/3-PG (250 μM NAD/500 μM 3-PG) and PHGDH_500_NAD/3-PG (500 μM NAD/500 μM 3-PG)
Type: biochemical
Conditions: 250 μM NAD/500 μM 3-PG; read-out: IC50 (PHGDH_HIGH_NAD/3-PG)
Answer format: numeric, nM implied, no suffix.

Here are 6 compounds together with their reported answers.
Cc1cc(Cl)c2cc(C(=O)N[C@H](C)c3ccc([S@+]([O-])CC(=O)O)cc3)n(C)c2c1	17
COCCC(C(=O)O)S(=O)(=O)c1ccc([C@@H](C)NC(=O)c2cc3c(Cl)cc(C)cc3n2C)cc1 (stereo partly shown)	21
CC(C)OC(=O)CS(=O)(=O)c1ccc([C@@H](C)NC(=O)c2cc3c(Cl)cc(N4CCN(C)CC4)cc3n2C)cc1	3140
Cc1cc(Cl)c2cc(C(=O)N[C@H](C)c3ccc(S(=O)(=O)CC(=O)OCCS(C)(=O)=O)cc3)n(C)c2c1	54
CCC(C(=O)O)S(=O)(=O)c1ccc([C@@H](C)NC(=O)c2cc3c(Cl)cc(C)cc3n2C)cc1 (stereo partly shown)	11
COC(=O)CS(=O)(=O)c1ccc([C@@H](C)NC(=O)c2cc3cc(Cl)ccc3n2C)cc1	2480

**Query** Need IC50, item `COCCOC(=O)CS(=O)(=O)c1ccc([C@@H](C)NC(=O)c2cc(-c3ccccc3)nn2C)cc1`
**Result** 1450

**Query** Need IC50, item Cc1cc(Cl)c2cc(C(=O)N[C@H](CO)c3ccc([S+]([O-])CC(=O)O)cc3)n(C)c2c1 (stereo partly shown)
**Result** 8

**Query** Need IC50, item `Cc1cc(Cl)c2cc(C(=O)N[C@H](C)c3ccc(S(=O)(=O)CC(=O)OCC(COC(=O)C(C)(C)C)COC(=O)C(C)(C)C)cc3)n(C)c2c1`
**Result** 9190

Hello, the source for this data is patent US11304929B2, in case you need it.
